test: self-splicing fitness, log relative to wild type (ln ratio); higher = more splicing; Tetrahymena group I intron in knt gene, E. coli kanamycin selection, DiMSum; sequences stand for … in CUCUCU…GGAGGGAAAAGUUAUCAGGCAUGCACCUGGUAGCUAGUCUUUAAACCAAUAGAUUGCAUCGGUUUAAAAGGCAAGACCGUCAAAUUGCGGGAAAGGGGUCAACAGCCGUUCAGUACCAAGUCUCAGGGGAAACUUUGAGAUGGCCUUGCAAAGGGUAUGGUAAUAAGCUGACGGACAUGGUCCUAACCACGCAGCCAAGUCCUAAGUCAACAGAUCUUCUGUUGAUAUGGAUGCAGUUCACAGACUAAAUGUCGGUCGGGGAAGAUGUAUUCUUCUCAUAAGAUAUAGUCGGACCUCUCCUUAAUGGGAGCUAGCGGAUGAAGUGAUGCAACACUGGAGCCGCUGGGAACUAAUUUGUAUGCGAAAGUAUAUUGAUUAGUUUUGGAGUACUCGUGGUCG; conditions: 30 °C;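 note: selection with 25 µg/mL kanamycin versus none on LB agar overnight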
Everything with self-splicing fitness (ln) lower than -1 is F; everything else, including exactly -1, is T.

input: # bool: self-splicing fitness (ln) of "CGACAGCAAUAUUACGUCUU" >= -1
output: T

input: # bool: self-splicing fitness (ln) of "CCGGAGCAAUAUUACGGCAU" >= -1
output: F

input: # bool: self-splicing fitness (ln) of "CUGUAGCAAUAUUACGCGAG" >= -1
output: F

input: # bool: self-splicing fitness (ln) of "AUCUAGCAAUAUUACGCCUG" >= -1
output: T

input: # bool: self-splicing fitness (ln) of "AUUCAGCAAUAUUACGGGCA" >= -1
output: F

input: # bool: self-splicing fitness (ln) of "UGCCAGCAAUAUUACGCUGA" >= -1
output: F

input: # bool: self-splicing fitness (ln) of "UCGAAGCAAUAUUACGUCCU" >= -1
output: T

input: # bool: self-splicing fitness (ln) of "UGCAAGCAAUAUUACGAAUU" >= -1
output: F

input: # bool: self-splicing fitness (ln) of "GAUCAGCAAUAUUACGCAGA" >= -1
output: F

input: # bool: self-splicing fitness (ln) of "AAGUAGCAAUAUUACGUCCA" >= -1
output: T

input: # bool: self-splicing fitness (ln) of "AUCUAGCAAUAUUACGCACG" >= -1
output: F

input: # bool: self-splicing fitness (ln) of "AGAAAGCAAUAUUACGGUUU" >= -1
output: T

input: # bool: self-splicing fitness (ln) of "AAUAAGCAAUAUUACGUCGU" >= -1
output: T

input: # bool: self-splicing fitness (ln) of "UUCGAGCAAUAUUACGUAGG" >= -1
output: F

input: # bool: self-splicing fitness (ln) of "CCAAAGCAAUAUUACGAGUG" >= -1
output: T

input: # bool: self-splicing fitness (ln) of "GAUCAGCAAUAUUACGGUAA" >= -1
output: T

input: # bool: self-splicing fitness (ln) of "UGAAAGCAAUAUUACGUGUC" >= -1
output: T

input: # bool: self-splicing fitness (ln) of "CUUAAGCAAUAUUACGAGCG" >= -1
output: T

input: # bool: self-splicing fitness (ln) of "GGUAAGCAAUAUUACGCGUC" >= -1
output: F

input: # bool: self-splicing fitness (ln) of "UAUAAGCAAUAUUACGAUAG" >= -1
output: F

input: # bool: self-splicing fitness (ln) of "CUUUAGCAAUAUUACGUUGU" >= -1
output: F

input: # bool: self-splicing fitness (ln) of "AAUCAGCAAUAUUACGGAUC" >= -1
output: T

input: # bool: self-splicing fitness (ln) of "UCGCAGCAAUAUUACGUGUA" >= -1
output: F

input: # bool: self-splicing fitness (ln) of "AAAUAGCAAUAUUACGUAUG" >= -1
output: F

input: # bool: self-splicing fitness (ln) of "GACGAGCAAUAUUACGUAUG" >= -1
output: F

input: # bool: self-splicing fitness (ln) of "CCGUAGCAAUAUUACGGAUG" >= -1
output: F

input: # bool: self-splicing fitness (ln) of "GCUCAGCAAUAUUACGCUGG" >= -1
output: F

input: # bool: self-splicing fitness (ln) of "CGACAGCAAUAUUACGACGC" >= -1
output: F

input: # bool: self-splicing fitness (ln) of "CCACAGCAAUAUUACGAUAG" >= -1
output: F

input: # bool: self-splicing fitness (ln) of "UAUCAGCAAUAUUACGCUCA" >= -1
output: T

input: # bool: self-splicing fitness (ln) of "AGGAAGCAAUAUUACGUUUG" >= -1
output: F

input: # bool: self-splicing fitness (ln) of "GCGCAGCAAUAUUACGUCCA" >= -1
output: F

input: # bool: self-splicing fitness (ln) of "UAUCAGCAAUAUUACGAUGG" >= -1
output: T

input: # bool: self-splicing fitness (ln) of "GCCUAGCAAUAUUACGUACC" >= -1
output: F
